target desc: KRas G12D (Homo sapiens, UniProt P01116, G12D)
Construct: Avidin-tag (so in the source)
Sequence (P01116 1-188 isoform P01116-2 G12D): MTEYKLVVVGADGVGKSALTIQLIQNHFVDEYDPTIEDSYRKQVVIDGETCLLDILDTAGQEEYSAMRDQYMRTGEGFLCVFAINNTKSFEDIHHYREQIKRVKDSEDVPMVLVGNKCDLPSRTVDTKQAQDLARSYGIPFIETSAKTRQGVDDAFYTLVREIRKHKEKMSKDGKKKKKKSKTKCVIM
assay text: KRas G12D Surface Plasmon Resonance (SPR) Binding Assay
study conditions: Biacore T200, 20° C., 1:1 binding model, read-out: KD (nM), Determination of KRas G12D KD
Recorded Kd for the following compounds
Return type: number; implicit unit nM.

Here are 3 compounds together with their reported answers.
{"columns": ["smiles input", "units label", "recorded number"],
 "data": [
  ["CN1CCC[C@H]1COc1nc(N2C[C@H]3CC[C@@H](C2)N3)c2ccc(-c3cccc4ccc(F)cc34)c(F)c2n1", "nM", 78],
  ["Cc1cc2[nH]ncc2c(-c2ccc3c(N4C[C@H]5CC[C@@H](C4)N5)nc(OC[C@@H]4CCCN4C)nc3c2F)c1C", "nM", 152],
  ["CN1CC(F)(F)C[C@H]1COc1nc(N2C[C@H]3CC[C@@H](C2)N3)c2ccc(-c3cc(O)cc4ccccc34)c(F)c2n1", "nM", 121]
]}

Now consider the entry below.
Request: // query Kd value for entry CN1CCC[C@H]1COc1nc(N2CCNC3(CC3)C2)c2ccc(-c3cc(O)cc4ccccc34)c(F)c2n1
Response: 110

###

target desc: GDP-loaded recombinant human KRAS G12D (Homo sapiens, UniProt P01116, G12D)
Construct: corresponding to amino acids 1:169, produced at Array BioPharma; biotin (biotinylated); made in house
Sequence (P01116 1-169 isoform P01116-2 G12D): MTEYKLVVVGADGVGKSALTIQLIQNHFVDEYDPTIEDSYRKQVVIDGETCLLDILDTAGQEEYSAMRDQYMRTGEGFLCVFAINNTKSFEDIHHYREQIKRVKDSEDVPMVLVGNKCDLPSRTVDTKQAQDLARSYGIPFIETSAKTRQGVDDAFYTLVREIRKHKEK
assay text: KRas G12D Binding Assay (TR-FRET displacement of Cy5 labelled tracer)
study conditions: 60 minute incubation at 22° C.
measurement label: log10 of IC50 (log10 of the value in nM)
Hi team, quick reminder: these entries are log10 of IC50 (nM).

Here are 10 compounds together with their reported answers.
{"columns": ["compound", "target desc", "measurement label", "recorded number"],
 "data": [
  ["Cc1cc2[nH]ncc2c(-c2ccc3c(N4C[C@H]5CC[C@@H](C4)N5)nc(OC[C@@H]4CCCN4C)nc3c2F)c1C", "GDP-loaded recombinant human KRAS G12D (Homo sapiens, UniProt P01116, G12D)", "log10 of IC50", 1.76],
  ["CN1CCC[C@H]1COc1nc(N2CC3CCC2CN3)c2cc(Cl)c(-c3cc(O)cc4ccccc34)c(F)c2n1 (some centres unmarked)", "GDP-loaded recombinant human KRAS G12D (Homo sapiens, UniProt P01116, G12D)", "log10 of IC50", 1.02],
  ["CN1CCC[C@H]1COc1nc(N2C[C@H]3CC[C@@H](C2)N3)c2cc(Oc3ccccc3Cl)c(-c3cc(O)cc4ccccc34)cc2n1", "GDP-loaded recombinant human KRAS G12D (Homo sapiens, UniProt P01116, G12D)", "log10 of IC50", 0.11],
  ["CN1CCC[C@H]1COc1nc(N2C[C@H]3CC[C@@H](C2)N3)c2cc(Oc3c(Cl)cccc3C#N)c(-c3cc(O)cc4ccccc34)c(F)c2n1", "GDP-loaded recombinant human KRAS G12D (Homo sapiens, UniProt P01116, G12D)", "log10 of IC50", 0.72],
  ["CN1CCC[C@H]1COc1nc(N2C[C@H]3CC[C@@H](C2)N3)c2ccc(-c3cc(O)cc4ccccc34)cc2n1", "GDP-loaded recombinant human KRAS G12D (Homo sapiens, UniProt P01116, G12D)", "log10 of IC50", 1.36],
  ["CN1CC(F)(F)C[C@H]1COc1nc(N2C[C@H]3CC[C@@H](C2)N3)c2ccc(-c3cc(O)cc4ccccc34)c(F)c2n1", "GDP-loaded recombinant human KRAS G12D (Homo sapiens, UniProt P01116, G12D)", "log10 of IC50", 2.47],
  ["Oc1cccc(F)c1-c1c(Cl)cc2c(N3CC4CCC(C3)N4)nc(OCC34CCCN3C[C@H](F)C4)nc2c1F (mixture of isomers)", "GDP-loaded recombinant human KRAS G12D (Homo sapiens, UniProt P01116, G12D)", "log10 of IC50", 0.54],
  ["Oc1cc(-c2ccc3c(N4CC5CCC(C4)N5)nc(OCC45CCCN4C[C@H](F)C5)nc3c2F)c2c(Cl)cccc2c1 (mixture of isomers)", "GDP-loaded recombinant human KRAS G12D (Homo sapiens, UniProt P01116, G12D)", "log10 of IC50", 0.15],
  ["COc1ccc(F)c(Oc2cc3c(N4C[C@H]5CC[C@@H](C4)N5)nc(OC[C@@H]4CCCN4C)nc3cc2-c2cc(O)cc3ccccc23)c1 [Example 17, bis(2,2,2-trifluoroacetate)]", "GDP-loaded recombinant human KRAS G12D (Homo sapiens, UniProt P01116, G12D)", "log10 of IC50", 0.90],
  ["CN1CCC[C@H]1COc1nc(N2C[C@H]3CC[C@@H](C2)N3)c2ccc(-c3cc(O)cc4ccccc34)c(F)c2n1", "GDP-loaded recombinant human KRAS G12D (Homo sapiens, UniProt P01116, G12D)", "log10 of IC50", 0.63]
]}

Now consider the entry below.
Request: // query log10 of IC50 value for entry CN1CCC[C@H]1COc1nc(N2C[C@H]3CC[C@@H](C2)N3)c2cc(Cl)c(-c3cc(O)cc4ccccc34)c(F)c2n1
Response: 1.05

###

target desc: GDP-loaded recombinant human KRAS G12D (Homo sapiens, UniProt P01116, G12D)
Construct: corresponding to amino acids 1:169, produced at Array BioPharma; biotin (biotinylated); made in house
assay text: KRas G12D Binding Assay (TR-FRET displacement of Cy5 labelled tracer)
study conditions: 60 minute incubation at 22° C.
measurement label: IC50 (nM)
Return type: number; implicit unit nM.

Here are 6 molecules together with their reported answers.
{"columns": ["molecule", "units label", "recorded number"],
 "data": [
  ["CN1CCC[C@H]1COc1nc(N2C[C@H]3CC[C@@H](C2)N3)c2cc(Oc3ccccc3C#N)c(-c3cc(O)cc4ccccc34)c(F)c2n1", "nM", 1.4],
  ["CN1CCC[C@H]1COc1nc2c(c(N3CC4CCC3CN4)n1)CCN(c1cc(O)cc3ccccc13)C2 (stereo partly drawn)", "nM", 152],
  ["CN1CCC[C@H]1COc1nc(N2CC3CCC(C2)N3)c2cc(Oc3cccnc3)c(-c3cc(O)cc4ccccc34)cc2n1", "nM", 7],
  ["CN1CCC[C@H]1COc1nc(N2CCN(CCCl)CC2)c2ccc(-c3cc(O)cc4ccccc34)c(F)c2n1", "nM", 187],
  ["CN1C[C@H](F)C[C@H]1COc1nc(N2C[C@H]3CC[C@@H](C2)N3)c2ccc(-c3cc(O)cc4ccccc34)c(F)c2n1", "nM", 1.8],
  ["CN1CCC[C@H]1COc1nc(N2C[C@H]3CC[C@@H](C2)N3)c2cc(Oc3cccc(F)c3C#N)c(-c3cc(O)cc4ccccc34)c(F)c2n1", "nM", 7.4]
]}

Request: // query IC50 value for entry Oc1cc(-c2ccc3c(N4CC5CCC(C4)N5)nc(OCC45CCCN4C[C@H](F)C5)nc3c2F)c2ccccc2c1 (mixture of isomers)
Response: 0.6

Request: // query IC50 value for entry N#Cc1ccccc1Oc1cc2c(N3CC4CCC(C3)N4)nc(OCC34CCCN3C[C@H](F)C4)nc2cc1-c1cc(O)cc2ccccc12 (mixture of isomers)
Response: 1.7

Request: // query IC50 value for entry Oc1cc(-c2ccc3c(N4C[C@H]5CC[C@@H](C4)N5)nc(OCC45CCCN4CCC5)nc3c2F)c2ccccc2c1
Response: 0.5

Request: // query IC50 value for entry Oc1cc(-c2cc3nc(OC[C@@]45CCCN4C[C@H](F)C5)nc(N4C[C@H]5CC[C@@H](C4)N5)c3cc2Oc2ccccc2Cl)c2c(Cl)cccc2c1
Response: 6.6

Request: // query IC50 value for entry CN1CCC[C@H]1COc1nc(N2C[C@H]3CC[C@@H](C2)N3)c2ccc(-c3cccc4ccc(F)cc34)c(F)c2n1
Response: 61.9

Request: // query IC50 value for entry Fc1c(-c2cccc3cccc(Cl)c23)ccc2c(N3C[C@H]4CC[C@@H](C3)N4)nc(OCC34CCCN3CCC4)nc12
Response: 6.1

Request: // query IC50 value for entry COc1ccc(Oc2cc3c(N4C[C@H]5CC[C@@H](C4)N5)nc(OC[C@@H]4CCCN4C)nc3cc2-c2cc(O)cc3ccccc23)c(Cl)c1
Response: 11.5

Request: // query IC50 value for entry Oc1cc(-c2ccc3c(N4C[C@H]5CC[C@@H](C4)N5)nc(OCC45CCCN4CCC5)nc3c2F)c2c(Cl)cccc2c1
Response: 0.7

Request: // query IC50 value for entry N#Cc1ccccc1Oc1cc2c(N3C[C@H]4CC[C@@H](C3)N4)nc(OCC34CCCN3CCC4)nc2cc1-c1cc(O)cc2ccccc12
Response: 1
